Please respond with reported pEC50 for every item in the list.
- Subject of test: CepR (Burkholderia cenocepacia)
- Sequence (B4EMD0 1-239): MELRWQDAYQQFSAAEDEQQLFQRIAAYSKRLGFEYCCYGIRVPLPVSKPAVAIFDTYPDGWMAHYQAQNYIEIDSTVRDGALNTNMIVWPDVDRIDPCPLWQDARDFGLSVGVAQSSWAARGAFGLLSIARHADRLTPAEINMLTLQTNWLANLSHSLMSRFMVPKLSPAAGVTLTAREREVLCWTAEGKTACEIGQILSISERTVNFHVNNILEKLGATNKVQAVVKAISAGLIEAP
- Procedure details: CepR agonism in E. coli β-galactosidase reporter (Ec-reporter) JLD271 [pJN105-cepR + pSC11-cepI]
- Type: cell-based, B. cenocepacia
- Run conditions: Ec-reporter, agonism dose-response
By convention, pEC50 is the negative base-10 log of a molar concentration.

Please supply the value of reported pEC50 for the item O=C(CCc1cccc(C(F)(F)F)c1)N[C@H]1CCOC1=O 7.59

Please supply the value of reported pEC50 for the item O=C(CCc1ccc([N+](=O)[O-])cc1)N[C@H]1CCOC1=O 9.72

Please supply the value of reported pEC50 for the item O=C(CCc1ccc(Cl)cc1)N[C@H]1CCOC1=O 8.36
